Tested on: Vero E6
Experiment: cell viability relative to DMSO; higher = less toxic
Details: 72 h; 100 nM
Recorded cell viability, one value per entry.

| COMPOUND | UNITS_SYMBOL | cell viability |
| --- | --- | --- |
| c1cnc(SCc2cccnc2)nc1 [tasuldine] | % | 96.7 |
| Cc1ccc(C(=O)Nc2ccc(CN3CCN(C)CC3)c(C(F)(F)F)c2)cc1C#Cc1cnc2[nH]ncc2c1 [GZD824] | % | 86.5 |
| Cc1cc(C(=O)Nc2nc3cccc(Cl)c3n2[C@@H]2CCCCN(C(=O)/C=C/CN(C)C)C2)ccn1 [EGF816] | % | 102 |
| O=c1cc(N2CCOCC2)oc2c(-c3cccc4c3sc3ccccc34)cccc12 [NU-7441] | % | 102 |
| Nc1ncnc2c1ncn2C1CCCO1 (centres undefined) | % | 101 |
| C=C1C(=O)[C@]23[C@H](O)[C@H]1CC[C@H]2[C@@]12CO[C@]3(O)[C@@H](O)[C@@H]1C(C)(C)CC[C@@H]2O [Oridonin (Isodonol)] | % | 97.9 |
| COc1cc(NC(=O)c2cccc(-n3cc(NC(=O)Nc4cccc(C)c4)cn3)c2)cc(OC)c1OC [SR-3576] | % | 97.2 |
| CCc1[nH]c(=O)[nH]c1C(=O)c1ccncc1 [piroximone] | % | 96.8 |
| Cc1sc2c(c1C)C(c1ccc(Cl)cc1)=N[C@@H](CC(=O)Nc1ccc(O)cc1)c1nnc(C)n1-2 [OTX015] | % | 84.5 |

====

Each entry below carries its recorded cell viability.
Test system: Vero E6
Assay: cell viability relative to DMSO; higher = less toxic
Conditions: 72 h; 100 nM
MEASURE: cell viability

| COMPOUND | READOUT_VALUE |
| --- | --- |
| CC(C)c1cc(-c2ccc(F)c3ccccc23)nc(N)n1 | 98.8% |
| CNS(=O)(=O)CCc1ccc2[nH]cc(C3CCN(C)CC3)c2c1 | 91.9% |
| CCCC(CCC)C(=O)NCC(N)=O [valrocemide] | 104% |
| N#Cc1cnc2cnc(NCc3cccnc3)cc2c1Nc1ccc(F)c(Cl)c1 | 94% |
| N#C/C(=C\c1ccc(O)c(O)c1)C(=O)OCCc1cccs1 | 96.7% |
| COc1cc(OC)c(NC(=O)Nc2cc(C)on2)cc1Cl | 102% |

====

Measured cell viability, listed per entry for reference.
Tested on: Vero E6
Test: cell viability relative to DMSO; higher = less toxic
Settings: 72 h; 1000 nM

| COMPOUND | cell viability [%] |
| --- | --- |
| Oc1ccc(/C=C/c2cc(O)cc(O)c2)cc1 [resveratrol] | 100 |
| O=C(O)c1ccc(N2N=C(Cc3ccccc3)/C(=C\c3ccc(-c4ccccc4F)o3)C2=O)cc1 [GS-143] | 101 |
| C[C@@H]1[C@H](O)[C@@H](C)/C=C/C=C/C=C/C=C/C=C/C=C/C=C/[C@H](O[C@@H]2O[C@H](C)[C@@H](O)[C@H](N)[C@@H]2O)C[C@@H]2O[C@](O)(C[C@@H](O)C[C@@H](O)[C@H](O)CC[C@@H](O)C[C@@H](O)CC(=O)O[C@H]1C)C[C@H](O)[C@H]2C(=O)O [amphotericin-b] | 101 |
| CCCCC#Cc1nc(NC)c2ncn([C@@H]3O[C@H](CO)[C@@H](O)[C@H]3O)c2n1 [HEMADO] | 105 |
| OC[C@@H](O)[C@@H](O)[C@@H](O)CO [ribitol] | 99.2 |
| CC(C)c1cc(-c2n[nH]c(=O)n2-c2ccc3c(ccn3C)c2)c(O)cc1O [ganetespib] | 25.9 |
| Fc1ccc(-n2cc(CCCCN3CCC4(CC3)OCc3ccccc34)c3ccccc32)cc1 [siramesine] | 89 |

====

Tested on: A549-ACE2
Assay: phospholipidosis EC50; higher = less potent phospholipidosis inducer
Conditions: 24 h

| COMPOUND | phospholipidosis EC50 |
| --- | --- |
| Cc1[nH]c(/C=C2\C(=O)Nc3ccc(F)cc32)c(C)c1C(=O)NCCN1CCCC1 [toceranib] | 16.5 µM |
| CN1Cc2ccccc2[C@@H]2c3cccc4[nH]cc(c34)C[C@H]21 [CY208-243] | 8.69 µM |
| CC(C)(Cc1ccc2ccccc2c1)NC[C@@H](O)COc1cccc(Cl)c1C#N [NPS-2143] | 1.06 µM |
| Fc1cc(-c2cccc3ncc(-c4cnn(C5CCNCC5)c4)nc23)cc(F)c1CN1CCOCC1 [NVP-BSK805] | 3.94 µM |
| COCC(=O)O[C@]1(CCN(C)CCCc2nc3ccccc3[nH]2)CCc2cc(F)ccc2[C@@H]1C(C)C [mibefradil] | 2.94 µM |
| CN1CC2c3ccccc3Oc3ccc(Cl)cc3C2C1 (stereo unspecified) [asenapine] | 7.2 µM |

====

Test system: Vero E6
Assay: cell viability relative to DMSO; higher = less toxic
Conditions: 72 h; 10 nM

| COMPOUND | cell viability, % |
| --- | --- |
| O=C(NC(Cc1cc(=O)[nH]c2ccccc12)C(=O)O)c1ccc(Cl)cc1 (stereo unspecified) [rebamipide] | 96 |
| O=S1(=O)OC(c2ccc(O)cc2)(c2ccc(O)cc2)c2ccccc21 | 102 |
| CN1C(=O)N(c2cc(Cl)cc(Cl)c2)C(=O)[C@@]1(C)Cc1ccc(Br)cc1 | 96.8 |
| CC(C)(C)C(=O)OCC(=O)[C@H]1CC[C@H]2[C@@H]3CCC4=CC(=O)CC[C@]4(C)[C@H]3CC[C@]12C [desoxycorticosterone-pivalate] | 99 |
| CNCc1cc(-c2ccccc2F)n(S(=O)(=O)c2cccnc2)c1 | 99.4 |
| CC(=O)NS(=O)(=O)c1ccc(NC(=O)c2ccccc2C(=O)O)cc1 [phthalylsulfacetamide] | 109 |

====

Below, each entry is listed alongside its reported cell viability.
Tested on: Vero E6
Assay: cell viability relative to DMSO; higher = less toxic
Details: 72 h; 1000 nM
MEASURE: cell viability (%)

| MOLECULE | MEASURE | READOUT_VALUE |
| --- | --- | --- |
| Cc1cnc(C(=O)N[C@H]2CCCCC/C=C\[C@@H]3C[C@@]3(C(=O)NS(=O)(=O)C3CC3)NC(=O)[C@@H]3C[C@@H](Oc4nc5ccccc5c5ccccc45)CN3C2=O)cn1 | cell viability | 94 |
| CN1Cc2ccccc2[C@@H]2c3cccc4[nH]cc(c34)C[C@H]21 | cell viability | 99.2 |
| FC(F)(F)c1cc(NC(=S)Nc2ccc(Br)cc2-c2nnn[nH]2)cc(C(F)(F)F)c1 | cell viability | 102 |
| COCCCOc1ccnc(C[S+]([O-])c2nc3ccccc3[nH]2)c1C (configuration not stated) | cell viability | 105 |
| Cc1cc(C(=O)Nc2nc3cccc(Cl)c3n2[C@@H]2CCCCN(C(=O)/C=C/CN(C)C)C2)ccn1 | cell viability | 82.1 |
| N[C@@H]1c2cccnc2[C@H](OC(=O)N2CCC(n3c(=O)[nH]c4ncccc43)CC2)CC[C@H]1c1cccc(F)c1F | cell viability | 99.7 |
| Nc1c2c(nc3c1CCC3)CCCC2 | cell viability | 94.7 |
| C[C@@H]1CN(CCCn2c3ccccc3c3ccccc32)C[C@H](C)N1 | cell viability | 98.2 |
| c1cc(-c2cnn3cc(-c4ccc(N5CCNCC5)cc4)cnc23)c2cccnc2c1 | cell viability | 87.7 |
| C[C@H]1[C@H](C)CC[C@]2(C(=O)O)CC[C@]3(C)C(=CC[C@@H]4[C@@]5(C)C[C@@H](O)[C@H](O)[C@@](C)(CO)[C@@H]5CC[C@]43C)[C@H]12 | cell viability | 93 |
| N[C@H]1C(O)O[C@H](CO)[C@@H](O)[C@@H]1O (mixture of isomers) | cell viability | 97.7 |
| OCCN1CCN(CCCN2c3ccccc3C=Cc3ccccc32)CC1 | cell viability | 98.5 |
| C[C@H](Cn1cnc2c(N)ncnc21)OCP(=O)(O)O | cell viability | 94.5 |
| Clc1ccc(C2(c3ccc(-c4cn[nH]c4)cc3)CCNCC2)cc1 | cell viability | 84.9 |
| CC(C)C[C@H](NC(=O)OCc1ccccc1)C(=O)N[C@@H](C[C@@H]1CCNC1=O)C(O)S(=O)(=O)O (some centres not stated) [GC376 sodium] | cell viability | 102 |
| Brc1ccc(NC2C3CC4CC(C3)CC2C4)cc1 (configuration not stated) | cell viability | 108 |
| Cc1sc2c(c1C)C(c1ccc(Cl)cc1)=N[C@@H](CC(=O)Nc1ccc(O)cc1)c1nnc(C)n1-2 | cell viability | 21.8 |

====

Test system: Caco-2
Experiment: cell viability relative to DMSO; higher = less toxic
Conditions: 72 h; 10 nM
MEASURE: cell viability (%)

| MOLECULE | MEASURE | UNITS_SYMBOL | READOUT_VALUE |
| --- | --- | --- | --- |
| CN(C)CCOC(c1ccccc1)c1ccccc1.Cn1c(=O)c2[nH]c(Cl)nc2n(C)c1=O [dimenhydrinate] | cell viability | % | 88.1 |
| N#CC(=C(/N)Sc1ccccc1N)/C(C#N)=C(/N)Sc1ccccc1N | cell viability | % | 96.8 |
| Oc1ccc(Cl)c2c1CCC2 | cell viability | % | 93.9 |
| S=C(NCCc1ccccn1)Nc1ccc(Br)cn1 | cell viability | % | 91.6 |
| NC1CCN(c2c(F)cc3c(=O)c(C(=O)O)cn(C4CC4)c3c2Cl)C1 (stereo not drawn) | cell viability | % | 100 |
| O=C(c1cn(Cc2cncn2Cc2ccc(Br)cc2)cc1-c1cccc2ccccc12)N1CCOCC1 | cell viability | % | 96.1 |
| OCCN1CCN(CCCN2c3ccccc3C=Cc3ccccc32)CC1 | cell viability | % | 102 |
| CC(C)N1CCN(c2ccc(C(=O)c3c(-c4ccc(O)cc4)sc4cc(O)ccc34)cc2)CC1 | cell viability | % | 102 |
| CN1CCN(c2ccc(/C=C(\C#N)c3ccccc3Br)cc2)CC1 | cell viability | % | 99.5 |
| O=C(O)CCCc1ccccc1 [phenylbutyrate] | cell viability | % | 100 |
| CC(=O)NS(=O)(=O)c1ccc(NC(=O)c2ccccc2C(=O)O)cc1 [phthalylsulfacetamide] | cell viability | % | 98.4 |
| Fc1ccc(-n2cc(CCCCN3CCC4(CC3)OCc3ccccc34)c3ccccc32)cc1 | cell viability | % | 104 |
| COc1cc(-c2ccc(=O)[nH]n2)ccc1OC(F)F | cell viability | % | 90 |
| C[C@@H]1CN(CCCn2c3ccccc3c3ccccc32)C[C@H](C)N1 | cell viability | % | 99.5 |
| COc1ccc(N(C(=O)Oc2c(C)cccc2C)c2ccnc(Nc3ccc(N4CCN(C)CC4)cc3)n2)c(OC)c1 | cell viability | % | 89.4 |
| C[C@]12CC[C@@H](O)C[C@H]1CC[C@@H]1[C@@H]2CC[C@]2(C)C(=O)CC[C@@H]12 [3-alpha-hydroxy-5-beta-androstan-17-one] | cell viability | % | 104 |
| Cc1c(NC(=O)N2CCOCC2)ccc2c1c1ccccc1n2C(C)C | cell viability | % | 106 |
| CNCc1cc(-c2ccccc2F)n(S(=O)(=O)c2cccnc2)c1 | cell viability | % | 100 |

Data origin: the supplement of paper PMC13380429
